src = PubChem BioAssay (NCI)

Answer each item with its documented growth.
Test system: HOP-62 NSCLC
test: NCI-60 one-dose screen, 48 h (100 = growth as untreated, 0 = no growth, -100 = all killed)
assayContext: 10 µM unless noted
Compounds without any hit were thinned out: in the full panel of roughly 83,000, 20% have a hit.
Please give a number only; it is taken to be in %.

# input Dear colleague, I am looking for the recorded growth of the following compound: COc1ccc(-c2ccc(-c3ccc(C(=N)N)o3)o2)cc1
# output 46.4

# input Item: Cc1ccc2c(c1)CC(O)CC1C(=O)N(CCO)CC(=O)N21 (stereo not drawn)
# output 101

# input Item: CCNCCNc1c(C)c(-c2ccc(C(F)(F)F)cc2)c(C#N)c2nc3ccccc3n12
# output 90.9

# input Item: [2H]C([2H])([2H])Oc1ccc(/C=C/C(=O)/C=C(O)/C=C/c2ccc(OC([2H])([2H])[2H])c(OC([2H])([2H])[2H])c2)cc1OC([2H])([2H])[2H]
# output 47.7

# input Item: COc1cc(/C=C2\CN(S(=O)(=O)c3ccc(C)cc3)C/C(=C\c3cc(CN4CCCC4)c(O)c(OC)c3)C2=O)cc(CN2CCCC2)c1O
# output 4.13

# input Item: Oc1ccc(C(c2ccc(O)cc2)c2ccc(Cl)cn2)cc1
# output 61.9

# input Item: Nc1nc(=O)n([C@H]2CC=C(CO)O2)cc1F
# output 99.1

# input Item: Cc1nc2ccccc2c(/C=C/c2ccc(Br)cc2)c1C(=O)/C=C/c1ccccc1
# output -35.1

# input Item: CCCCC/C=C/CCC(=O)N[C@H]1[C@H](Oc2c3cc4cc2Oc2ccc(cc2Cl)[C@@H](O[C@@H]2O[C@H](CO)[C@@H](O)[C@H](O)[C@H]2NC(C)=O)[C@@H]2NC(=O)[C@H](NC(=O)[C@@H]4NC(=O)[C@H]4NC(=O)[C@@H](Cc5ccc(c(Cl)c5)O3)NC(=O)[C@@H](N)c3ccc(O)c(c3)Oc3cc(O)cc4c3)c3ccc(O)c(c3)-c3c(O[C@H]4O[C@H](CO)[C@@H](O)[C@H](O)[C@@H]4O)cc(O)cc3[C@H](C(=O)O)NC2=O)O[C@H](CO)[C@H](O)[C@@H]1O
# output 113

# input Item: COc1ccc2c(c1)C(c1c[nH]c3ccccc13)(c1c[nH]c3ccccc13)CCO2
# output 49.1

# input Item: COC(=O)[C@@H](Cc1c[nH]c2ccccc12)NC[C@@H](O)CN1C(=O)/C(=C\c2cc(OC)c(OC)c(OC)c2)c2ccccc21
# output 64.8

# input Item: COc1ccc(/C=N\NC(=O)c2ccc3nc(-c4ccc(Cl)cc4)[nH]c3c2)cc1
# output 30.3

# input Item: Cc1nn(-c2ccccc2)c(Oc2ccccc2)c1/C=N/NC(=O)Cn1c(=O)sc2ccccc21
# output 57.4
